// data source = ChEMBL document CHEMBL4665880

species: Rattus norvegicus; assay: Selectivity index, ratio of IC50 for rat kidney ALR1 to IC50 for rat lens ALR2
Label rule met when Ratio IC50 is at or above 20; otherwise label rule not met.

[[record]]
compoundsmiles = "O=C(O)CN1CC(=O)Oc2c(/C=C/c3ccccc3)cccc21"
group = "rule not met"

[[record]]
compoundsmiles = "CC(C)(C)c1ccc(/C=C/c2cccc3c2OC(=O)CN3CC(=O)O)cc1"
group = "rule not met"

[[record]]
compoundsmiles = "O=C(O)CN1CC(=O)Oc2c(/C=C/c3ccc(C(F)(F)F)cc3)cccc21"
group = "rule met"

[[record]]
compoundsmiles = "O=C(O)CN1CC(=O)Oc2ccccc21"
group = "rule not met"

[[record]]
compoundsmiles = "COc1cc(/C=C/c2cccc3c2OC(=O)CN3CC(=O)O)ccc1O"
group = "rule met"

[[record]]
compoundsmiles = "O=C(O)CN1CC(=O)Oc2c(/C=C/c3ccc(O)cc3)cccc21"
group = "rule met"

[[record]]
compoundsmiles = "O=C(O)CN1CC(=O)Oc2c(/C=C/c3ccc(F)cc3)cccc21"
group = "rule met"


====

biological target: Aldo-keto reductase family 1 member B1 (Rattus norvegicus)
As shown below, each of these molecules has a reported IC50 value.
assayReadout: IC50 (nM)

[[record]]
compoundsmiles = "CC(C)(C)c1ccc(/C=C/c2cccc3c2OC(=O)CN3CC(=O)O)cc1"
assayreadout = "IC50"
measured = 170

[[record]]
compoundsmiles = "O=C(O)CN1CC(=O)Oc2c(/C=C/c3ccc(C(F)(F)F)cc3)cccc21"
assayreadout = "IC50"
measured = 138

[[record]]
compoundsmiles = "O=C(O)CN1CC(=O)Oc2c(/C=C/c3ccc([N+](=O)[O-])cc3)cccc21"
assayreadout = "IC50"
measured = 262

[[record]]
compoundsmiles = "O=C(O)CN1CC(=O)Oc2c(/C=C/c3ccc(F)cc3)cccc21"
assayreadout = "IC50"
measured = 167

[[record]]
compoundsmiles = "COc1ccc(/C=C/c2cccc3c2OC(=O)CN3CC(=O)O)cc1"
assayreadout = "IC50"
measured = 208


====

experiment: Antioxidant activity assessed as DPPH radical scavenging activity at 100 uM relative to control; format: functional
assayReadout: inhibition (%)

[[record]]
compound = "O=C(O)CN1CC(=O)Oc2c(-c3ccccc3)cccc21"
assayreadout = "inhibition"
unitinfo = "%"
measured = 91.3

[[record]]
compound = "Cc1c(C)c2c(c(C)c1O)CCC(C)(C(=O)O)O2 (stereo not drawn)"
assayreadout = "inhibition"
unitinfo = "%"
measured = 94.6

[[record]]
compound = "O=C(O)CN1CC(=O)Oc2ccccc21"
assayreadout = "inhibition"
unitinfo = "%"
measured = 92.8

[[record]]
compound = "O=C(O)CN1CC(=O)Oc2c(/C=C/c3ccccc3)cccc21"
assayreadout = "inhibition"
unitinfo = "%"
measured = 86.5

[[record]]
compound = "COc1cc(/C=C/c2cccc3c2OC(=O)CN3CC(=O)O)ccc1O"
assayreadout = "inhibition"
unitinfo = "%"
measured = 93.1

[[record]]
compound = "O=C(O)CN1CC(=O)Oc2c(/C=C/c3ccc(O)cc3)cccc21"
assayreadout = "inhibition"
unitinfo = "%"
measured = 93.2

[[record]]
compound = "O=C(O)CN1CC(=O)Oc2c(/C=C/c3ccc(F)cc3)cccc21"
assayreadout = "inhibition"
unitinfo = "%"
measured = 92.6

[[record]]
compound = "O=C(O)CN1CC(=O)Oc2c(/C=C/c3ccc(C(F)(F)F)cc3)cccc21"
assayreadout = "inhibition"
unitinfo = "%"
measured = 91.3


====

target: Aldo-keto reductase family 1 member A1 (Rattus norvegicus)
Sequence (P51635 whole entry, looked up): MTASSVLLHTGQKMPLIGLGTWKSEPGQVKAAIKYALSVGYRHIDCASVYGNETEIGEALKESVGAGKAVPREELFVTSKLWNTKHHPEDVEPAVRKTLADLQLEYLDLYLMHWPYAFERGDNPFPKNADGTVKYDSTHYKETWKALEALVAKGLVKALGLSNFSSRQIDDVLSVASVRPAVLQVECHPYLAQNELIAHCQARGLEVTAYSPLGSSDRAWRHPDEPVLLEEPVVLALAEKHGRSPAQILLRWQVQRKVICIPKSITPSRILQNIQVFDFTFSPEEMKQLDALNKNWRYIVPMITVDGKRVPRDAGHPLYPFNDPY
Mark 1.0 for IC50 under 3 µM, 0.0 if at or over.

[[record]]
compoundsmiles = "O=C(O)CN1CC(=O)Oc2c(/C=C/c3ccccc3)cccc21"
targetortestsystem = "Aldo-keto reductase family 1 member A1 (Rattus norvegicus)"
group = 1.0

[[record]]
compoundsmiles = "O=C(O)CN1CC(=O)Oc2c(/C=C/c3ccc(C(F)(F)F)cc3)cccc21"
targetortestsystem = "Aldo-keto reductase family 1 member A1 (Rattus norvegicus)"
group = 0.0

[[record]]
compoundsmiles = "O=C(O)CN1CC(=O)Oc2ccccc21"
targetortestsystem = "Aldo-keto reductase family 1 member A1 (Rattus norvegicus)"
group = 0.0

[[record]]
compoundsmiles = "CC(C)(C)c1ccc(/C=C/c2cccc3c2OC(=O)CN3CC(=O)O)cc1"
targetortestsystem = "Aldo-keto reductase family 1 member A1 (Rattus norvegicus)"
group = 1.0

[[record]]
compoundsmiles = "CC(/C=C1\\SC(=S)N(CC(=O)O)C1=O)=C\\c1ccccc1"
targetortestsystem = "Aldo-keto reductase family 1 member A1 (Rattus norvegicus)"
group = 1.0

